Assay Details: NCI Yeast Anticancer Drug Screen. Data for the mec2-1 strain (AID 157)
Measurement Setup: S. cerevisiae mec2-1 strain, at 50.0 µM, hits give high values
Compounds without any hit were thinned out: in the full panel of roughly 79,000, 15% have a hit. Active and inactive are the calls of the source. Cut-off read from the data, not from the text of the source: active = growth inhibition above about 70%; inactive = the rest.
Property Measured: growth inhibition

Recorded growth inhibition of OCC(O)COc1ccc(OCc2ccccc2)cc1 (stereo not given) , please.
-12.1% (inactive)

----------
Overview of reported growth inhibition across a group of molecules:
Assay Details: NCI Yeast Anticancer Drug Screen. Data for the bub3 strain (AID 167)
Measurement Setup: S. cerevisiae bub3 mutant strain, at 50.0 µM, hits give high values
This is part of a sample that, as a whole, favours compounds with a hit. Of some 79,000 tested, about 15% had one in any assay.
Answer format: numeric, % implied, no suffix.

molecule=O=C(Nc1ccccc1C(=O)N/N=C/c1ccc(Cl)cc1)c1ccccc1Cl property_measured="growth inhibition" unit=% result_value=42.1
molecule=NC(=O)c1c[nH]c(=O)cc1O property_measured="growth inhibition" unit=% result_value=7.3
molecule=O=C(O)c1ccc(C2=Cc3cc(Cl)ccc3OC2)cc1 property_measured="growth inhibition" unit=% result_value=-15.1
molecule=Cc1cc(C)c(NC(=O)CC#N)cc1C property_measured="growth inhibition" unit=% result_value=-1.35

Need growth inhibition, item CCCCCCCCCSCCOC(=S)N(C)C
21.8

Check CC[N+]1(C)CCC(O)(c2ccccc2)C(C(=O)c2ccccc2)C1 (centres undefined) too.
6.1

Next up: O=S=C1SC2CCCCC2S1 (centres undefined)
-9.45

Repeat for the following molecule: OCC1CCCC(n2cnc3c(=S)nc[nH]c32)O1 (centres undefined)
-42.2

Also Nc1nc(-c2ccccc2)cc(-c2cc(Cl)ccc2O)n1 , if possible.
6.4

What about CCCNC(=S)/N=C/c1c(O)cc(C)oc1=O ?
-18.5

Record: NC(=O)CC[n+]1ccc(C(=O)O)cc1
-25.1

Moving on to the next molecule: C=CC1(C)CCC2C(=CCC3C2(C)CC(O)C(O)C3(C)COC2OC(C(=O)O)C(O)C(O)C2O)C1 (centres undefined) (tested in a mixture with another compound)
4.95

Note, next up: CCOc1ccc(/C(O)=C/c2nc3ccccc3nc2/C=C(\O)c2ccc(OCC)cc2)cc1
36

Another: C=CNc1cccc2ccccc12
25.1

Now try CCOC(CN(CC)CC)OCC .
-21.8

Subsequent entry: CCC(=O)N(C)C1(C#N)CCCCC1
4.85

Now give it for CC(C)Sc1nc(NC(=O)N(C)N=O)cc(=O)[nH]1 too.
-9.95

Ok, now CCC(=O)Oc1ccc(C(C)(C)CC(C)(C)C)cc1
6.05

What do you get for CCCCCn1c(=O)c2cc3c(=O)n(CCCCC)c(=O)c3cc2c1=O ?
10

----------
Assay Details: NCI Yeast Anticancer Drug Screen. Data for the cln2 rad14 strain (AID 165);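 note: 0% = growth equal to vehicle treated cultures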
Measurement Setup: S. cerevisiae cln2 rad14 strain, at 50.0 µM
About 79,000 compounds went through this panel and 15% of them were active in at least one assay; those are over-represented in the sample as a whole. Activity calls are given as the source filed them. Rule as the data show it: active = growth inhibition above about 70%; inactive = the rest. Where a SMILES comes first, the peptide text is derived from it. The star is where a group is joined. Cbz = O=C(OCc1ccccc1)*
Entry note: the call must match one of YES = active, NO = inactive

compound=CC1(C)OCC2(CO1)CSCCCSCC1(COC(C)(C)OC1)CSCCCSC2 class_name=NO
compound=Cn1cc(S(=O)(=O)NC(=O)Nc2ccc(Cl)cc2)c(=O)c2ccc(Cl)cc21 class_name=NO
compound="N#CC(NC12CC3CC(CC(C3)C1)C2)c1ccccc1C(F)(F)F (centres undefined)" class_name=NO
compound="CCOC(=O)CCC(NC(=O)C(CCC(=O)O)NC(=O)OCc1ccccc1)C(=O)OCC (stereo not drawn) (Cbz-Glu-Glu(OEt)-OEt; configuration not given here)" class_name=NO
compound=O=C(O)CCSc1ccccc1 class_name=NO

Attention now shifts to the item below.
Tell me the recorded outcome of this test for O=[N+]([O-])c1ccc(/C=C/c2ccc([N+](=O)[O-])cc2S(=O)(=O)O)c(S(=O)(=O)O)c1 .
NO

The measured values listed here are drawn from PubChem BioAssay (NCI).
